- Species: Rattus norvegicus
- test-name: Cardiotoxicity in rat ECG model relative to adriamycin
- assay-context: in vivo
I'd appreciate it if you marked entries Met when Ratio is lower than 2 and Not met when it is not.

Record excerpt, results attached:
[
  {
    "molecule": "COc1cccc2c1C(=O)c1c(O)c3c(c(O)c1C2=O)C[C@@](O)(/C(C)=N/NC(=O)c1ccccc1)C[C@@H]3O[C@H]1C[C@H](N)[C@H](O)[C@H](C)O1.Cl [ZORUBICIN HYDROCHLORIDE]",
    "class-name": "Met"
  },
  {
    "molecule": "COc1cccc2c1C(=O)c1c(O)c3c(c(O)c1C2=O)C[C@@](O)(/C(CO)=N/NC(=O)c1ccc(Cl)c(Cl)c1)C[C@@H]3O[C@H]1C[C@H](N)[C@H](O)[C@H](C)O1.Cl",
    "class-name": "Met"
  },
  {
    "molecule": "CCc1ccc(C(=O)N/N=C(\\C)[C@]2(O)Cc3c(O)c4c(c(O)c3[C@@H](O[C@H]3C[C@H](N)[C@H](O)[C@H](C)O3)C2)C(=O)c2c(OC)cccc2C4=O)cc1.Cl",
    "class-name": "Met"
  },
  {
    "molecule": "COc1cccc2c1C(=O)c1c(O)c3c(c(O)c1C2=O)C[C@@](O)(/C(CO)=N/NC(=O)c1ccccc1)C[C@@H]3O[C@H]1C[C@H](N)[C@H](O)[C@H](C)O1.Cl",
    "class-name": "Not met"
  }
]

Moving on to another molecule below.
Asked: Determine if COc1cccc2c1C(=O)c1c(O)c3c(c(O)c1C2=O)C[C@@](O)(/C(C)=N/NC(=O)c1ccc(Cl)c(Cl)c1)C[C@@H]3O[C@H]1C[C@H](N)[C@H](O)[C@H](C)O1.Cl shows Ratio strictly lower than 2.
Given back: Not met

====

- Organism: Rattus norvegicus
- test-name: Cardiotoxicity in rat ECG model relative to adriamycin
- assay-context: in vivo
# key: entry, value: Ratio
The response must contain the number and no unit.

Completed entries (count: 3):
[
  {
    "chemical-structure": "COc1ccc(C(=O)N/N=C(\\C)[C@]2(O)Cc3c(O)c4c(c(O)c3[C@@H](O[C@H]3C[C@H](N)[C@H](O)[C@H](C)O3)C2)C(=O)c2c(OC)cccc2C4=O)cc1.Cl",
    "value": 1.8
  },
  {
    "chemical-structure": "COc1cccc2c1C(=O)c1c(O)c3c(c(O)c1C2=O)C[C@@](O)(C(C)=O)C[C@@H]3O[C@H]1C[C@H](N)[C@H](O)[C@H](C)O1",
    "value": 1.3
  },
  {
    "chemical-structure": "COc1cccc2c1C(=O)c1c(O)c3c(c(O)c1C2=O)C[C@@](O)(/C(C)=N/NC(=O)c1ccc(-c2ccccc2)cc1)C[C@@H]3O[C@H]1C[C@H](N)[C@H](O)[C@H](C)O1.Cl",
    "value": 2.8
  }
]

Asked: For COc1cccc2c1C(=O)c1c(O)c3c(c(O)c1C2=O)C[C@@](O)(/C(C)=N/NC(=O)c1ccc(Cl)cc1)C[C@@H]3O[C@H]1C[C@H](N)[C@H](O)[C@H](C)O1.Cl , what is its reported Ratio?
Given back: 3.5

====

# key: entry, value: MCCD
- Species on record: Rattus norvegicus
- test-name: Cardiotoxicity in rat ECG model
- assay-context: in vivo
The reply should be a number in mg/kg, with the unit left off.

Asked: For CCc1ccc(C(=O)N/N=C(\C)[C@]2(O)Cc3c(O)c4c(c(O)c3[C@@H](O[C@H]3C[C@H](N)[C@H](O)[C@H](C)O3)C2)C(=O)c2c(OC)cccc2C4=O)cc1.Cl , what is its reported MCCD?
Given back: 20

Asked: For COc1ccc(C(=O)N/N=C(\C)[C@]2(O)Cc3c(O)c4c(c(O)c3[C@@H](O[C@H]3C[C@H](N)[C@H](O)[C@H](C)O3)C2)C(=O)c2c(OC)cccc2C4=O)cc1.Cl , what is its reported MCCD?
Given back: 24

Asked: For COc1cccc2c1C(=O)c1c(O)c3c(c(O)c1C2=O)C[C@@](O)(/C(CO)=N/NC(=O)c1ccc(Cl)c(Cl)c1)C[C@@H]3O[C@H]1C[C@H](N)[C@H](O)[C@H](C)O1.Cl , what is its reported MCCD?
Given back: 20

====

# key: entry, value: logP
- test-name: Partition coefficient, log P of the compound
- Type: physicochemical
- assay-context: octanol/water

Completed entries (count: 2):
[
  {
    "chemical-structure": "CCCCOc1ccc(C(=O)N/N=C(\\C)[C@]2(O)Cc3c(O)c4c(c(O)c3[C@@H](O[C@H]3C[C@H](N)[C@H](O)[C@H](C)O3)C2)C(=O)c2c(OC)cccc2C4=O)cc1.Cl",
    "logP": 2.65
  },
  {
    "chemical-structure": "COc1cccc2c1C(=O)c1c(O)c3c(c(O)c1C2=O)C[C@@](O)(/C(CO)=N/NC(=O)c1ccccc1)C[C@@H]3O[C@H]1C[C@H](N)[C@H](O)[C@H](C)O1.Cl",
    "logP": 0.52
  }
]

Next item in the queue.
Asked: For COc1cccc2c1C(=O)c1c(O)c3c(c(O)c1C2=O)C[C@@](O)(/C(C)=N/NC(=O)c1ccc(Cl)c(Cl)c1)C[C@@H]3O[C@H]1C[C@H](N)[C@H](O)[C@H](C)O1.Cl , what is its reported logP?
Given back: 2.46

====

- Tested on: P388
- test-name: In vivo antitumor activity against mouse P388 cells allografted in BDF/CDF mouse assessed as host survival time at 4 mg/kg, ip administered on days 1 to 9 relative to control
- Format: functional
- assay-context: route intraperitoneal
experimental-readout: T/C

Completed entries (count: 3):
[
  {
    "chemical-structure": "COc1ccc(C(=O)N/N=C(\\C)[C@]2(O)Cc3c(O)c4c(c(O)c3[C@@H](O[C@H]3C[C@H](N)[C@H](O)[C@H](C)O3)C2)C(=O)c2c(OC)cccc2C4=O)cc1.Cl",
    "T/C": "211%"
  },
  {
    "chemical-structure": "COc1cccc2c1C(=O)c1c(O)c3c(c(O)c1C2=O)C[C@@](O)(/C(C)=N/NC(=O)c1ccc(Cl)cc1)C[C@@H]3O[C@H]1C[C@H](N)[C@H](O)[C@H](C)O1.Cl",
    "T/C": "211%"
  },
  {
    "chemical-structure": "COc1cccc2c1C(=O)c1c(O)c3c(c(O)c1C2=O)C[C@@](O)(/C(CO)=N/NC(=O)c1ccccc1)C[C@@H]3O[C@H]1C[C@H](N)[C@H](O)[C@H](C)O1.Cl",
    "T/C": "172%"
  }
]

Asked: For COc1cccc2c1C(=O)c1c(O)c3c(c(O)c1C2=O)C[C@@](O)(/C(C)=N/NC(=O)c1ccc(N(C)C)cc1)C[C@@H]3O[C@H]1C[C@H](N)[C@H](O)[C@H](C)O1.Cl , what is its reported T/C?
Given back: 172%
